Readings of GI50 for the listed compounds
- System: SK-MEL-5
- ASSAY_OVERVIEW: NCI tumour cell line growth inhibition, 48 h
Calls of active or inactive are those of the source. Rule as the data show it: active = GI50 up to about 1.1 µM and inactive = higher.

{"columns": ["COMPOUND", "GI50"],
 "data": [
  ["COC(=O)C1CC23C=CCN4CC(C2C)C2(c5ccccc5NC12)C43 (stereo not drawn)", "> 100 µM (inactive)"],
  ["CC(=O)CNC(=O)OC(C)(C)C", "> 100 µM (inactive)"],
  ["O=CC12CCCN1CCC2", "> 100 µM (inactive)"],
  ["O=C(O)C1CCC(=O)N1S(=O)(=O)c1ccccc1 (stereo not drawn)", "> 100 µM (inactive)"],
  ["C/C(CC(=O)Nc1cccc(Cl)c1C)=N\\NC(=O)c1ccncc1", "> 100 µM (inactive)"],
  ["O=S(=O)(c1ccccc1)[C@@H]1[C@H]2C=C[C@](CS)(O2)[C@H]1S(=O)(=O)c1ccccc1", "> 100 µM (inactive)"],
  ["Nc1ccccc1OCc1cc(=O)c(OCc2ccccc2)co1", "18.8 µM (inactive)"],
  ["CCCCN(Cc1ccccc1)/C(=N/C#N)N(Cc1ccccc1)Cc1ccccc1", "14.8 µM (inactive)"],
  ["CC1=CC(O)(c2ccc(-c3ccccc3Cl)cc2)OC1=O (stereo not drawn)", "> 100 µM (inactive)"],
  ["O=Cc1ccc2c(c1-c1c(C=O)ccc3c1OCO3)OCO2", "> 100 µM (inactive)"],
  ["S=C(NCCCCCCNC(=S)Nc1c2ccccc2nc2ccccc12)Nc1c2ccccc2nc2ccccc12", "> 93.1 µM (inactive)"],
  ["Cc1ccc(C(=O)N/N=C(\\N=N\\c2ccc([N+](=O)[O-])cc2)c2ccc(N(CCC#N)CCC#N)cc2C)cc1", "75.3 µM (inactive)"],
  ["C=C1c2nc3ccccc3n2C=C(c2ccc(C)cc2)N1c1ccc(OC)cc1", "13.7 µM (inactive)"],
  ["O=C(c1ccccc1)N1C(=S)NC(=N/c2ccccc2)/C1=N\\c1ccccc1", "> 100 µM (inactive)"],
  ["COc1ccc2c(c1)C(N)=C(Cc1ccncc1)C2=O", "> 100 µM (inactive)"],
  ["COC(CN(C)C(=O)C(C)NC(=O)c1ccccc1)OC (stereo not drawn)", "> 100 µM (inactive)"],
  ["O=c1c2cc3c(cc2[nH]c2ncccc12)OCO3", "> 10 µM (inactive)"],
  ["O=S(=O)(O)c1cc(S(=O)(=O)O)c2c(Nc3ccnc4ccccc34)ccc(S(=O)(=O)O)c2c1", "> 100 µM (inactive)"]
]}

----------
- Tested on: A498
- ASSAY_OVERVIEW: NCI tumour cell line growth inhibition, 48 h
Activity calls are given as the source filed them. Rule as the data show it: active = GI50 up to about 1.1 µM and inactive = higher.

{"columns": ["COMPOUND", "GI50"],
 "data": [
  ["O=C(c1ccccc1)c1ccc(C(c2c(O)c3ccccc3oc2=O)c2c(O)c3ccccc3oc2=O)cc1", "24.5 µM (inactive)"],
  ["Cc1ccc2nc(-n3c(/C=C/c4ccccc4O)nc4ccccc4c3=O)sc2c1", "> 100 µM (inactive)"],
  ["N#C/C(=C/c1cccc2ccccc12)C(=O)c1ccccc1", "23.1 µM (inactive)"],
  ["CCOC(=O)NC(=O)c1cn(CCCOC(=O)NCCCCCCNC(=O)OCCCn2cc(C(=O)NC(=O)OCC)c(=O)[nH]c2=O)c(=O)[nH]c1=O", "22.8 µM (inactive)"],
  ["O=C(c1ccccc1)N1C(=S)NC(=N/c2ccccc2)/C1=N\\c1ccccc1", "> 100 µM (inactive)"],
  ["CN(C)CC/C(=N\\Nc1ccc(Cl)cc1Cl)c1ccccc1", "16.4 µM (inactive)"],
  ["C1OC1CO[C@@H]1CO[C@H]2[C@@H]1OC[C@H]2OCC1CO1 (some centres not stated)", "> 100 µM (inactive)"],
  ["CCOc1cc(C2CC(c3ccc(NS(=O)(=O)c4cc([N+](=O)[O-])ccc4C)cc3)=NN2C(=O)c2ccccc2)ccc1O (configuration not stated)", "10.2 µM (inactive)"],
  ["BrC1=CN2C[n+]3cc(Br)c4ccccc4c3N=C2c2ccccc21", "24.9 µM (inactive)"],
  ["O=C(c1ccc(Cl)cc1)C1OC12C(=O)Nc1ccccc12 (configuration not stated)", "19.7 µM (inactive)"],
  ["C1=CC(N(c2ccccc2)C2C=CCCC2)CCC1 (configuration not stated)", "> 100 µM (inactive)"],
  ["CC1(C)Oc2ccc(NC(=O)CCC(N)C(=O)O)cc2O1 (configuration not stated)", "> 100 µM (inactive)"],
  ["S=C(NCCCCCCNC(=S)Nc1c2ccccc2nc2ccccc12)Nc1c2ccccc2nc2ccccc12", "> 91.8 µM (inactive)"],
  ["O=c1c(F)cn2c(=O)n1CCCCCCCn1c(=O)c(F)cn(c1=O)CCCCCCC2", "32 µM (inactive)"],
  ["CCCCCCC(O)C/C=C/CCCCCC/C(C(=O)OC)=C(/O)C(=O)OCC (configuration not stated)", "> 100 µM (inactive)"],
  ["COc1ccc(C2C3=C(COC3=O)OC(C)(C)Oc3cc4c(cc32)OCO4)cc1OC (configuration not stated)", "23.1 µM (inactive)"],
  ["CC1(C)CC(=O)C2=C(C1)S/C(=C1/SC3=C(S1)C(=O)CC(C)(C)C3)S2", "> 251 µM (inactive)"]
]}

----------
- Test system: HOP-92
- ASSAY_OVERVIEW: NCI tumour cell line growth inhibition, 48 h
Activity calls are given as the source filed them. No stated cut-off is given here; in the data, active = GI50 up to about 1.1 µM and inactive = higher.
QUANTITY_NAME: GI50

{"columns": ["MOLECULE", "TEST_RESULT"],
 "data": [
  ["O=c1c(F)cn2c(=O)n1CCCCCCCn1c(=O)c(F)cn(c1=O)CCCCCCC2", "57.7 µM (inactive)"],
  ["Clc1cccc(Cl)c1/C=N/C12CC3CC(CC(C3)C1)C2", "> 10 µM (inactive)"],
  ["Cc1ccc(OP2(=O)Oc3ccc4ccccc4c3CN2c2ccc(Cl)cc2)cc1C (centres undefined)", "> 100 µM (inactive)"],
  ["C#CCC(N)(CO)C(=O)O (centres undefined)", "> 100 µM (inactive)"],
  ["O=c1oc2cc(O)ccc2c2oc3cc(O)ccc3c12 [COUMESTROL]", "> 118 µM (inactive)"],
  ["COc1ccc(/N=C(Nc2ccc(OC)cc2)/C(=N/c2ccc(OC)cc2)Nc2ccc(OC)cc2)cc1", "> 100 µM (inactive)"],
  ["C=CCOC(OCC=C)/C(Br)=C/C", "56.5 µM (inactive)"],
  ["CC(=O)OC1CCC2(C)C(=CCC3C2CCC2(C)C3CC3OC4(CCC(C)CN4)C(C)C32)C1 (centres undefined)", "> 100 µM (inactive)"],
  ["O=C(Oc1cccc(Cl)c1)c1cc2cc(CCl)ccc2oc1=O", "19.8 µM (inactive)"],
  ["CN(C=O)/C=C/c1cc(O)ccc1O", "19.9 µM (inactive)"],
  ["COC(CC1(OC)OC(=O)C=C1N)OC (centres undefined)", "> 100 µM (inactive)"],
  ["CC(=O)Oc1ccc2c(c1)CC[C@@H]1C2[C@@H](O[N+](=O)[O-])C[C@@]2(C)C1CC[C@@H]2O[N+](=O)[O-] (some centres undefined)", "10.1 µM (inactive)"],
  ["O=C(/C=C/c1ccc(OCCCCCCCCCCOc2ccc(/C=C/C(=O)c3ccc(Cl)cc3)cc2)cc1)c1ccc(Cl)cc1", "> 100 µM (inactive)"],
  ["CN1CCc2cc(N)cc3c2C1Cc1ccc(O)c(O)c1-3 (centres undefined)", "51.2 µM (inactive)"]
]}

----------
- System: NCI/ADR-RES
- ASSAY_OVERVIEW: NCI tumour cell line growth inhibition, 48 h
The source made the active and inactive calls. Cut-off read from the data, not from the text of the source: active = GI50 up to about 1.1 µM and inactive = higher.
Readings of GI50 for the listed compounds
QUANTITY_NAME: GI50

{"columns": ["COMPOUND_SMILES", "TEST_RESULT"],
 "data": [
  ["CN1CCN(c2n[nH]c(=O)c3c2nnn3Cc2ccccc2)CC1", "> 100 µM (inactive)"],
  ["O=C1CN(c2cccc(C(F)(F)F)c2)C(=O)CN1CCN1CC(=O)N(c2cccc(C(F)(F)F)c2)CC1=O", "> 100 µM (inactive)"],
  ["CN(C)Cc1cc(/N=N/c2ccc(Cl)cc2)cc(CN(C)C)c1O", "3.07 µM (inactive)"],
  ["N#Cc1c(Cl)c2cccnc2n2c1nc1ccccc12", "2.69 µM (inactive)"],
  ["Cc1c(CCCl)c(N=[N+]=[N-])n2c(nc3ccccc32)c1C#N", "1.69 µM (inactive)"]
]}

----------
- System: UACC-62
- ASSAY_OVERVIEW: NCI tumour cell line growth inhibition, 48 h
The source made the active and inactive calls. Rule as the data show it: active = GI50 up to about 1.1 µM and inactive = higher.
Readings of GI50 for the listed compounds

{"columns": ["COMPOUND", "GI50"],
 "data": [
  ["COC(=O)C1CCOC(C)N1C(=O)OC(C)(C)C (configuration not stated)", "> 100 µM (inactive)"],
  ["CC(C)=CCC\\C(C)=C/C=C/C(C)=C\\C=C\\C(C)=C/C=C/C=C(C)\\C=C\\C=C(C)/C=C/C=C(/C)CCC=C(C)C", "> 100 µM (inactive)"],
  ["Cn1cc(NC(=O)c2cc(NC(=O)CCCCCC(=O)Nc3cc(C(=O)Nc4cc(C(=O)NCCC(=N)N)n(C)c4)n(C)c3)cn2C)cc1C(=O)NCCC(=N)N", "64.9 µM (inactive)"],
  ["CCOC(=O)c1ccc(Nc2cnc3cc(C(F)(F)F)ccc3n2)cc1", "> 100 µM (inactive)"],
  ["OC(c1ccccc1)c1c(-c2ccccc2)oc(-c2ccccc2)c1C(O)c1ccccc1 (configuration not stated)", "11.2 µM (inactive)"],
  ["Nc1ncnc2c1ncn2C1OC(CSCc2ccc(Cl)cc2)C(O)C1O (configuration not stated)", "46.9 µM (inactive)"],
  ["Nn1c(SCC(=O)O)nc2ccccc2c1=O", "> 100 µM (inactive)"],
  ["CCOC(=O)C[n+]1ccc2c([nH]c3cc(OC)ccc32)c1C", "> 100 µM (inactive)"],
  ["CC1C(=NO)C(C)C(c2ccccc2)N(N=O)C1c1ccccc1 (configuration not stated)", "13.5 µM (inactive)"],
  ["CCc1cccc(C)c1NC(=O)C(=O)Cc1nc2ccccc2o1", "> 100 µM (inactive)"],
  ["CCCCCCCCCCCC(=O)OC[C@@H](C[As](=O)(O)O)OC(=O)CCCCCCCCCCC", "2.52 µM (inactive)"],
  ["O=C1Nc2ccccc2C12CCNC2Cc1ccccc1 (configuration not stated)", "> 100 µM (inactive)"]
]}
